We begin with a simple list: items and their reported logD.
- PROTOCOL: Lipophilicity, logD of compound at pH 7.4 by LC-MS analysis
- Assay type: physicochemical
- EXPERIMENTAL PARAMETERS: buffer, read-out: logD

Record excerpt, results attached:
ENTRY SMILES: CC(C)c1onc(-c2c(Cl)cccc2Cl)c1COc1ccc(/C=C/c2cccc(C(=O)O)c2)c(Cl)c1
ATTRIBUTE MEASURED: logD
ASSAY VALUE: 1.01

ENTRY SMILES: COc1ccc(CNc2c(-c3cc(Cl)ccn3)nc3ccc(Cl)cn23)cc1
ATTRIBUTE MEASURED: logD
ASSAY VALUE: 1.69

Consider the compound CC[C@H]1[C@@H](O)[C@@H]2[C@H](CC[C@]3(C)[C@@H]([C@H](C)CCC(=O)O)CC[C@@H]23)[C@@]2(C)CC[C@@H](O)C[C@@H]12 and give its measured logD.
0.81
